- assayedSystem: bovine cardiac myosin (Bos taurus, UniProt Q9BE39)
- Sequence (Q9BE39 whole entry): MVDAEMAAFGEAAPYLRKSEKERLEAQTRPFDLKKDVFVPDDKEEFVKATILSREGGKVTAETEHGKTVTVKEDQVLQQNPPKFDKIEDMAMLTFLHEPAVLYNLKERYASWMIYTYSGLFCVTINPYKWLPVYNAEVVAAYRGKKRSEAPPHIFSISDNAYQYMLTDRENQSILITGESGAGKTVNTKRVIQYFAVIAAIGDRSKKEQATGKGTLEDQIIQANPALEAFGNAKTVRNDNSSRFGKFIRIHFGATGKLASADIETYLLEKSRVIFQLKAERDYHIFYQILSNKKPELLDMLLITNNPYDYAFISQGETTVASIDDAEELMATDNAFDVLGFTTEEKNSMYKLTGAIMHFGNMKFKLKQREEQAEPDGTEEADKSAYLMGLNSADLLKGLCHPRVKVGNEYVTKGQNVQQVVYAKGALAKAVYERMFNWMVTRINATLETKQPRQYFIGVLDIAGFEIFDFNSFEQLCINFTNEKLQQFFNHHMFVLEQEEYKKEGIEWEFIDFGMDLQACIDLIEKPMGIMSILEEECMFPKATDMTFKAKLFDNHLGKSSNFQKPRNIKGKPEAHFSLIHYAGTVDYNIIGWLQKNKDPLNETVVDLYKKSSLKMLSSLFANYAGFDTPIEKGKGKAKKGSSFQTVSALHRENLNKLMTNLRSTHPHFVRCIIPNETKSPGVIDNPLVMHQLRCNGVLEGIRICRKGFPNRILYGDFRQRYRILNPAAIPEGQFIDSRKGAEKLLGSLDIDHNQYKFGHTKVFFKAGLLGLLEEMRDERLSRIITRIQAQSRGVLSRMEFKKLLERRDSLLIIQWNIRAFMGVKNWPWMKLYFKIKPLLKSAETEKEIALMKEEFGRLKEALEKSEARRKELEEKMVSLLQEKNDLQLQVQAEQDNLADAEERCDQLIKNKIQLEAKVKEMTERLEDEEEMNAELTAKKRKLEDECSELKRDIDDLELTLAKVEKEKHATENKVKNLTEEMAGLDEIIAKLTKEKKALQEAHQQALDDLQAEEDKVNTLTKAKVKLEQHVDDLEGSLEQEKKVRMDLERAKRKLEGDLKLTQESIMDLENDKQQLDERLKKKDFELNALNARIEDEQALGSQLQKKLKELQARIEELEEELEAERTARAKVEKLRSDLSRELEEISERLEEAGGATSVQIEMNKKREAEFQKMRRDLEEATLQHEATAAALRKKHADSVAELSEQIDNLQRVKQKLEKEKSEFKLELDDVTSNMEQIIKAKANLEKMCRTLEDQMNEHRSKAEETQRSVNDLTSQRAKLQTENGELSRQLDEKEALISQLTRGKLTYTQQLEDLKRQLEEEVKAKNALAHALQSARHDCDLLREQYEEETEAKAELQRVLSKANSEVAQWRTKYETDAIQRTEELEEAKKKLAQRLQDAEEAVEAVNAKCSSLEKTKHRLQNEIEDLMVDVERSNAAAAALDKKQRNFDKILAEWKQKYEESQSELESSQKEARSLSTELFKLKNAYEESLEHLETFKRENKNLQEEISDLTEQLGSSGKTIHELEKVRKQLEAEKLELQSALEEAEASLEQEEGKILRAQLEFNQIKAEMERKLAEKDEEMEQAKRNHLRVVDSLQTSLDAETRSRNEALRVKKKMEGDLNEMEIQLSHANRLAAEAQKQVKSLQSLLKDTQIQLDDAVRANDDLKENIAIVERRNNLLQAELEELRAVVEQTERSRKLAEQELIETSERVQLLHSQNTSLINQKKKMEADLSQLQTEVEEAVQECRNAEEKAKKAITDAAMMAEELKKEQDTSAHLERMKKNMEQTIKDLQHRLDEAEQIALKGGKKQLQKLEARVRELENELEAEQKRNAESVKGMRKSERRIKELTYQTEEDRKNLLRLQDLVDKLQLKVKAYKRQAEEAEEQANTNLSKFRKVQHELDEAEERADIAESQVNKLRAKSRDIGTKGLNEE
- Sequence (P85100 whole entry partner): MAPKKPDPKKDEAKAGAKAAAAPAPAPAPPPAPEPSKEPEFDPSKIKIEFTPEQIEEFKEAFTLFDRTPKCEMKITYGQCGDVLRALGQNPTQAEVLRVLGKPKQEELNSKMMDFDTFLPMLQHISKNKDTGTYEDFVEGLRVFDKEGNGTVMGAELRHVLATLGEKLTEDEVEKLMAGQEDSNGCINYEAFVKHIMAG
- Sequence (Q3SZE5 whole entry partner): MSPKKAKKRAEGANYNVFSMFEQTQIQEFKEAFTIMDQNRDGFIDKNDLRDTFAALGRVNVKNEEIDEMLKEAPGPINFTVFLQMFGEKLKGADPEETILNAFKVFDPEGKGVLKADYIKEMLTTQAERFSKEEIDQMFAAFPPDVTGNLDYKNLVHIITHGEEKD
- assayText: Myosin inhibition assay (PK/LDH-coupled ATPase, bovine cardiac myofibrils)
- conditionSummary: calcium concentration giving 50% activation, pH 6.8, read-out: bcMF pCa_6 IC50
Listed here are compounds together with their documented IC50.

INSERT INTO measurements (compound, recordedresult) VALUES
  ('CC(C)n1c(=O)[nH]c2c(c1=O)C[C@@H](c1ccccc1)N2 (single isomer, unassigned) [Compound 8]', '> 15 µM');

Qu. Recorded IC50 for CC(C)n1c(=O)[nH]c2c(c1=O)CC[C@H](c1cccc(F)c1)N2 [Compound 68] , please?
Ans. 1 to 15 µM

Qu. Recorded IC50 for O=c1[nH]c2c(c(=O)n1C1CC1)CC[C@H](c1ccccc1)N2 [Compound 90] , please?
Ans. 1 to 15 µM

Qu. Recorded IC50 for Cc1cccc([C@H]2CCc3c([nH]c(=O)n(C(C)C)c3=O)N2)c1 [Compound 102] , please?
Ans. < 1 µM

Qu. Recorded IC50 for CCn1c(=O)[nH]c2c(c1=O)CC[C@H](c1ccccc1F)N2 [Compound 14] , please?
Ans. 1 to 15 µM

====

- assayedSystem: bovine cardiac myosin (Bos taurus, UniProt Q9BE39)
- assayText: Myosin inhibition assay (PK/LDH-coupled ATPase, bovine cardiac myofibrils)
- conditionSummary: calcium concentration giving 50% activation, pH 6.8, read-out: bcMF pCa_6 IC50
Listed here are compounds together with their documented IC50.

INSERT INTO measurements (compound, recordedresult) VALUES
  ('CC(C)n1c(=O)[nH]c2c(c1=O)CC(F)(F)[C@H](c1ccccc1)N2 [Compound 116]', '1 to 15 µM'),
  ('C[C@]1(c2cccc(F)c2)CCc2c([nH]c(=O)n(-c3ccccc3)c2=O)N1 [Compound 127]', '< 1 µM'),
  ('CC(C)n1c(=O)[nH]c2c(c1=O)CC[C@H](c1ccc(F)cc1F)N2 [Compound 6]', '< 1 µM'),
  ('O=c1[nH]c2c(c(=O)n1-c1ccccc1)CC[C@H](c1ccccc1)N2 [Compound 26]', '1 to 15 µM'),
  ('CCn1c(=O)[nH]c2c(c1=O)CC[C@H](c1cccc(Cl)c1)N2 [Compound 11]', '1 to 15 µM');

Qu. Recorded IC50 for O=c1[nH]c2c(c(=O)n1-c1cc(F)cc(F)c1)CC[C@H](CC1CC(F)(F)C1)N2 [Compound 51] , please?
Ans. 1 to 15 µM

Qu. Recorded IC50 for CCn1c(=O)[nH]c2c(c1=O)CCC[C@@H](c1ccc(F)c(F)c1)N2 [Compound 100] , please?
Ans. > 15 µM

Qu. Recorded IC50 for Cc1cccc([C@H]2CCc3c([nH]c(=O)n(C4(C)CC4)c3=O)N2)c1 [Compound 124] , please?
Ans. 1 to 15 µM

====

- assayedSystem: bovine cardiac myosin (Bos taurus)
- assayText: Myosin inhibition assay (PK/LDH-coupled ATPase, bovine cardiac myofibrils)
- conditionSummary: calcium concentration giving 50% activation, pH 6.8, read-out: bcMF pCa_6 IC50
Listed here are compounds together with their documented IC50.

INSERT INTO assay_data (compound, recordedresult) VALUES
  ('CCCn1c(=O)[nH]c2c(c1=O)CC[C@H](c1ccc(F)c(F)c1)N2 [Compound 97]', '1 to 15 µM');

Qu. Recorded IC50 for O=c1[nH]c2c(c(=O)n1-c1cccc(F)n1)CC[C@H](C1CCC(F)(F)CC1)N2 [Compound 43] , please?
Ans. < 1 µM

Qu. Recorded IC50 for CC(C)n1c(=O)[nH]c2c(c1=O)CCC(c1ccccc1)N2 (stereo not shown) [Compound 89] , please?
Ans. 1 to 15 µM

====

- assayedSystem: bovine cardiac myosin (Bos taurus, UniProt Q9BE39)
- assayText: Myosin inhibition assay (PK/LDH-coupled ATPase, bovine cardiac myofibrils)
- conditionSummary: calcium concentration giving 50% activation, pH 6.8, read-out: bcMF pCa_6 IC50
- Experimental: Small molecule agents were assessed for their ability to inhibit the enzymatic activity of bovine cardiac myosin using a biochemical assay that couples the release of ADP (adenosine diphosphate) from cardiac myosin to an enzymatic coupling system consisting of pyruvate kinase and lactate dehydrogenase (PK/LDH) and monitoring the absorbance decrease of NADH (at 340 nm) as a function of time. PK converts ADP to ATP (adenosine triphosphate) by converting PEP (phosphoenolpyruvate) to pyruvate. […]
pIC50: −log10 of the molar value.
reportedEndpoint: pIC50

Worked set:
INSERT INTO measurements (molecule, recordedresult) VALUES
  ('CC(C)Cn1c(=O)[nH]c2c(c1=O)CC[C@H](c1ccc(F)c(F)c1)N2', '4.82 to 6.00'),
  ('CC1(n2c(=O)[nH]c3c(c2=O)CC[C@H](c2cccc(F)c2)N3)CC1', '4.82 to 6.00'),
  ('CC(C)n1c(=O)[nH]c2c(c1=O)CC[C@@H](c1ccc(F)c(F)c1)N2', '< 4.82');

Qu. Recorded pIC50 for "CC(C)n1c(=O)[nH]c2c(c1=O)CC[C@H](c1c(F)cccc1F)N2" , please?
Ans. 4.82 to 6.00

Qu. Recorded pIC50 for "[2H]C1([2H])C[C@H](c2ccc(F)c(F)c2)Nc2[nH]c(=O)n(C(C)C)c(=O)c21" , please?
Ans. 4.82 to 6.00

Qu. Recorded pIC50 for "CCn1c(=O)[nH]c2c(c1=O)CC[C@H](c1ccc(F)cc1)N2" , please?
Ans. 4.82 to 6.00

====

- assayedSystem: bovine cardiac myosin (Bos taurus, UniProt Q9BE39)
- assayText: Myosin inhibition assay (PK/LDH-coupled ATPase, bovine cardiac myofibrils)
- conditionSummary: calcium concentration giving 50% activation, pH 6.8, read-out: bcMF pCa_6 IC50
reportedEndpoint: IC50

Worked set:
INSERT INTO results (molecule, reportedendpoint, recordedresult) VALUES
  ('CC(C)n1c(=O)[nH]c2c(c1=O)CC[C@H](c1ccc(=O)[nH]c1)N2 [Compound 54]', 'IC50', '> 15 µM'),
  ('CC1(n2c(=O)[nH]c3c(c2=O)CC[C@H](c2ccccc2)N3)CC1 [Compound 56]', 'IC50', '1 to 15 µM'),
  ('O=c1[nH]c2c(c(=O)n1-c1cc(F)cc(F)c1)CC[C@H](C1CC(F)(F)C1)N2 [Compound 42]', 'IC50', '> 15 µM');

// below: IC50 requested for another molecule
Qu. Recorded IC50 for CC(C)n1c(=O)[nH]c2c(c1=O)CC[C@](C)(c1cc(F)ccc1F)N2 [Compound 115] , please?
Ans. < 1 µM

====

- assayedSystem: bovine cardiac myosin (Bos taurus)
- assayText: Myosin inhibition assay (PK/LDH-coupled ATPase, bovine cardiac myofibrils)
- conditionSummary: calcium concentration giving 50% activation, pH 6.8, read-out: bcMF pCa_6 IC50
reportedEndpoint: IC50

INSERT INTO measurements (molecule, recordedresult) VALUES
  ('COc1ccc([C@H]2CCc3c([nH]c(=O)n(C(C)C)c3=O)N2)cn1 [Compound 59]', '1000 to 15000 nM');

Qu. Recorded IC50 for CC(C)Cn1c(=O)[nH]c2c(c1=O)CC[C@H](C1CCC(F)(F)CC1)N2 [Compound 23] , please?
Ans. < 1000 nM

Qu. Recorded IC50 for O=c1[nH]c2c(c(=O)n1CC1CC1)CC[C@H](c1ccc(F)c(F)c1)N2 [Compound 82] , please?
Ans. 1000 to 15000 nM

Qu. Recorded IC50 for CC(C)n1c(=O)[nH]c2c(c1=O)CC[C@H](C1CCC(F)(F)CC1)N2 [Compound 46] , please?
Ans. < 1000 nM

Qu. Recorded IC50 for Cn1c(=O)[nH]c2c(c1=O)CC[C@](C)(c1cccc(F)c1)N2 [Compound 126] , please?
Ans. 1000 to 15000 nM

Qu. Recorded IC50 for CCn1c(=O)[nH]c2c(c1=O)CC[C@](CC)(c1ccccc1)N2 [Compound 123] , please?
Ans. 1000 to 15000 nM

Qu. Recorded IC50 for C[C@]1(c2cccc(F)c2)CCc2c([nH]c(=O)n(C3CCOCC3)c2=O)N1 [Compound 128] , please?
Ans. < 1000 nM

Qu. Recorded IC50 for O=c1[nH]c2c(c(=O)n1-c1cc(F)cc(F)c1)C[C@H](c1ccccc1)N2 [Compound 71] , please?
Ans. > 15000 nM

====

Listed here are compounds together with their documented inhibition at 0.1 µM.
- Tested on: adult rat ventricular myocytes
- assayText: Cardiomyocyte contractility assay (fractional shortening, IonOptix edge detection)
- Format: cell-based
- conditionSummary: Ventricular myocyte, 0.1 μM compound, 1 Hz pacing

Worked set:
INSERT INTO assay_data (compoundstructure, recordedresult) VALUES
  ('CC(C)n1c(=O)[nH]c2c(c1=O)CC[C@H](c1ccccc1F)N2', '> 66%'),
  ('CC(C)n1c(=O)[nH]c2c(c1=O)CC[C@H](c1cccc(F)c1)N2', '> 66%'),
  ('CC(C)n1c(=O)[nH]c2c(c1=O)CC[C@H](c1ccc(F)c(F)c1)N2', '< 33%');

// below: inhibition at 0.1 µM requested for another compound
Qu. Recorded inhibition at 0.1 µM for "CC(C)n1c(=O)[nH]c2c(c1=O)CC[C@](C)(c1ccccc1)N2" , please?
Ans. > 66%
